pIC50, Cholinesterase (Equus caballus): measured values
To interpret pIC50, take it as minus log10 of a concentration measured in moles per litre.

The examples below pair each entry with its known result.
• Cc1nc(C(=O)NCCCCCCCCCCNc2c3c(nc4ccccc24)CCCC3)cc2c1[nH]c1ccccc12 = 6.44
• O=C(NCCCCCCNc1c2c(nc3ccccc13)CCCC2)c1cc2c([nH]c3ccccc32)c(-c2ccccc2)n1 = 6.89

Provide pIC50, tested on Cholinesterase (Equus caballus), for COc1ccc(-c2nc(C(=O)NCCCCCCNc3c4c(nc5ccccc35)CCCC4)cc3c2[nH]c2ccccc23)cc1 .
Sequence (P81908 whole entry): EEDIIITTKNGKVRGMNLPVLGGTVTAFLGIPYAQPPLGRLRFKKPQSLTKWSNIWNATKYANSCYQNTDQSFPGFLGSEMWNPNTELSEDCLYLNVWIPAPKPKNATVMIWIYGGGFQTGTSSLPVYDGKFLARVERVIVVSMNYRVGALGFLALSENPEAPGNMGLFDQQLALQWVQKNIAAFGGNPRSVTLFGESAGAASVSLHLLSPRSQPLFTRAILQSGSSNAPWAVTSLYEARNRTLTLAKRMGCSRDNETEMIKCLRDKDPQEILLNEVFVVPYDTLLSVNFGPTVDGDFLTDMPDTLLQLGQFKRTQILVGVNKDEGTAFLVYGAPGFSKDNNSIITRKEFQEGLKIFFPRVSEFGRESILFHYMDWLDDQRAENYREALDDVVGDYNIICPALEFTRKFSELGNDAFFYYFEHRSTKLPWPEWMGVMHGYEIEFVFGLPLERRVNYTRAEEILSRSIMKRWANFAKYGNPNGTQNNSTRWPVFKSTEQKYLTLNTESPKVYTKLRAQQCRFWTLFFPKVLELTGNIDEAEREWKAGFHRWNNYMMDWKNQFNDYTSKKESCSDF
6.48

Provide pIC50, tested on Cholinesterase (Equus caballus), for CC1c2[nH]c3ccccc3c2C[C@@H](C(=O)NCCCCCCNc2c3c(nc4ccccc24)CCCC3)N1C(=O)OC(C)(C)C (some centres not stated) .
7.65

Provide pIC50, tested on Cholinesterase (Equus caballus), for CCc1nc(C(=O)NCCCCCCNc2c3c(nc4ccccc24)CCCC3)cc2c1[nH]c1ccccc12 .
7.01

Provide pIC50, tested on Cholinesterase (Equus caballus), for O=C(NCCCCCCNc1c2c(nc3ccccc13)CCCC2)c1cc2c([nH]c3ccccc32)c(-c2ccc(F)cc2)n1 .
6.69

Provide pIC50, tested on Cholinesterase (Equus caballus), for N[C@@H](Cc1c[nH]c2ccccc12)C(=O)NCCCCCCNc1c2c(nc3ccccc13)CCCC2 .
7.97

Provide pIC50, tested on Cholinesterase (Equus caballus), for Cc1nc(C(=O)NCCCCCCNc2c3c(nc4ccccc24)CCCC3)cc2c1[nH]c1ccccc12 .
7.03

Provide pIC50, tested on Cholinesterase (Equus caballus), for CC(=O)N[C@@H](Cc1c[nH]c2ccccc12)C(=O)NCCCCCCNc1c2c(nc3ccccc13)CCCC2 .
8.21

Provide pIC50, tested on Cholinesterase (Equus caballus), for Cc1nc(C(=O)NCCCCNc2c3c(nc4ccccc24)CCCC3)cc2c1[nH]c1ccccc12 .
6.80

Provide pIC50, tested on Cholinesterase (Equus caballus), for Cc1nc(C(=O)NCCCCCCCCNc2c3c(nc4ccccc24)CCCC3)cc2c1[nH]c1ccccc12 .
6.61
